Each recorded value in this set is attributed to patent US20260069689A1.

- Experimental System: SARS-COV-2 RBD extracellular domain expressed with a C-terminal myc-myc-hexahistidine tag (SARS-CoV-2)
- Method Summary: SPR (Biacore), mAb captured by anti-human Fc, RBD-mmH in solution, 25 C
Readout Name: t½ (h)
# value in h; strip the unit string

Requested field: t½. Item: mAb15158 (antibody, V domains shown) VH: EVQLVESGGGLVQPGGSLRLSCAASGFSFSSNWMSWVRQAPGKGLEWVGNINQDGSEKYYVDSVEGRFTISRDNAKKSLYLQMNSLRAEDTAVYYCARDLGVLWFGDFVDWGQGALVTVSS VL: DIQMTQSPSSLSASVGDRVTITCRASQAISNSLAWYQQKPGKAPKLLLYAASTLESGVPSRFSGSGSGTDYTLTISSLQPEDFATYYCLQYYGSPRTFGQGTKVEIKR
2.37

Data request, read-out t½, for mAb15166 (antibody, V domains shown) VH: EVQLVESGGGLVQPGGSLRLSCAASGFTVTSNYMSWVRQAPGKGLEWVSAIYSGESTYYADSVKGRFTISRDSSKNTLYLQMNSLRVEDTAVYYCASIHDYSNYVGGFDPWGQGTLVTVSS VL: QSALTQPASVSGSPGQSITISCTGPSSDFGSYNLVSWYQQHPGKAPKLMIYEGTKRPSGVSNRFSGSKSGNTASLTISGLQAEDEADYYCSSYAGSSTWVFGGGTKLTVLG
0.0367
